Test: Isoelectric point, log D and log P (SiriusT3)
Format: physicochemical
Conditions: 25±1° C., 0.15 M KCl
Residues, ends and D or L forms follow the SMILES beside them.
Recorded IP (isoelectric point) values for a group of compounds are listed next.
Please reply with the value in numeric form only.

Task item: Reported IP (isoelectric point), compound CC[C@H](C)[C@H](NC(=O)[C@H](Cc1c[nH]c2ccccc12)NC(=O)[C@H](CCC(=O)O)NC(=O)[C@H](Cc1ccc(O)cc1)NC(=O)[C@H](CC(C)C)NC(=O)[C@H](CC(=O)O)NC(=O)[C@H](C)NC(=O)[C@@H]1CCCN1C(=O)[C@@H](NC(=O)[C@@H](NC(=O)[C@@H](NC(=O)[C@H](CCSC)NC(=O)[C@@H](NC(C)=O)C(C)C)C(C)C)[C@@H](C)O)[C@@H](C)CC)C(=O)N[C@@H](CCCNC(=N)N)C(=O)N[C@@H](CCCNC(=N)N)C(N)=O [SEQ ID NO: 17] (Ac-VMVTIPADLYEWIRR-NH2) : ____
Reply: 8.05

More entries:
Task item: Look up IP (isoelectric point): CC[C@H](C)[C@H](NC(C)=O)C(=O)N[C@@H](Cc1c[nH]cn1)C(=O)N[C@H](C(=O)N[C@H](C(=O)N[C@H](C(=O)N1CCC[C@H]1C(=O)N[C@@H](C)C(=O)N[C@@H](CC(=O)O)C(=O)N[C@@H](CC(C)C)C(=O)N[C@@H](Cc1c[nH]c2ccccc12)C(=O)N[C@@H](CC(=O)O)C(=O)N[C@@H](Cc1c[nH]c2ccccc12)C(=O)N[C@H](C(=O)N[C@@H](CCC(=O)O)C(=O)N[C@@H](CCCCN)C(N)=O)[C@@H](C)CC)[C@@H](C)CC)[C@@H](C)O)C(C)C [SEQ ID NO: 11] (Ac-IHVTIPADLWDWIEK-NH2)
Reply: 4.25

* * *

Target: IL-17RA/IL17RC dimerization induced by IL-17A (Homo sapiens)
Sequence (Q16552 24-155): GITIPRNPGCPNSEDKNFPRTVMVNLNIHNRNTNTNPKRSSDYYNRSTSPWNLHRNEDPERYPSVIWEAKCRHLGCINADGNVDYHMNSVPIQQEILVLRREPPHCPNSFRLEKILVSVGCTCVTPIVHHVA
Experiment: IL-17RA/IL17RC dimerization assay in response to IL-17A (PathHunter Cytokine Receptor Assay)
Format: cell-based
Conditions: IL-17A at EC80; read-out: IC50 in IL-17RA/IL7RC dimerization assay
Procedure: The peptides of Table 7 were tested for their ability to inhibit the binding of IL-17A to its receptor and the subsequent interaction of IL-17RA and IL17RC. […] In the PathHunter® Cytokine Receptor Assay, one cytokine receptor chain is tagged with a small peptide epitope ProLink (PK) and the other chain is tagged with Enzyme Acceptor (EA). […] This interaction generates an active unit of b-galactosidase, which is detected using a chemiluminescent substrate. […]
Residues, ends and D or L forms follow the SMILES beside them.
Catalogue of IC50 readings, one per entry.

Worked cases, IC50 given:
Task item: Look at this compound and give its reported IC50. CC(=O)N[C@H](C(=O)N[C@@H](Cc1c[nH]cn1)C(=O)N[C@@H](Cc1ccccc1)C(=O)N[C@H](C(=O)N[C@@H](Cc1ccccc1)C(=O)N1CCC[C@H]1C(=O)N[C@@H](CCC(N)=O)C(=O)N[C@@H](CC(=O)O)C(=O)N[C@@H](CC(C)C)C(=O)N[C@@H](Cc1ccc(O)cc1)C(=O)N[C@@H](CC(N)=O)C(=O)N[C@@H](Cc1ccccc1)C(=O)N[C@H](C(=O)N[C@@H](CCCNC(=N)N)C(=O)N[C@@H](CCCNC(=N)N)C(N)=O)C(C)C)[C@@H](C)O)C(C)C [SEQ ID NO: 148] (Ac-VHFTFPQDLYNFVRR-NH2)
Reply: < 0.5 µM

Task item: Entry CC[C@H](C)[C@H](NC(C)=O)C(=O)N[C@@H](Cc1c[nH]cn1)C(=O)N[C@H](C(=O)N[C@H](C(=O)N[C@H](C(=O)N1CCC[C@H]1C(=O)NCC(=O)N[C@@H](CCC(=O)O)C(=O)N[C@H](C(=O)N[C@@H](Cc1ccccc1)C(=O)N[C@@H](CCC(=O)O)C(=O)N[C@@H](Cc1c[nH]c2ccccc12)C(=O)N[C@@H](CC(C)C)C(=O)N[C@@H](CCC(N)=O)C(=O)N[C@@H](Cc1c[nH]cn1)C(N)=O)[C@@H](C)CC)[C@@H](C)CC)[C@@H](C)O)C(C)C [SEQ ID NO: 250] (Ac-IHVTIPGEIFEWLQH-NH2) has what IC50?
Reply: < 10 µM

Task item: Fill in the blank: the reported IC50 of CC[C@H](C)[C@H](NC(C)=O)C(=O)N[C@@H](Cc1c[nH]cn1)C(=O)N[C@H](C(=O)N[C@H](C(=O)N[C@H](C(=O)N1CCC[C@H]1C(=O)N[C@@H](C)C(=O)N[C@@H](Cc1ccc(O)cc1)C(=O)N[C@@H](CC(C)C)C(=O)N[C@@H](Cc1c[nH]c2ccccc12)C(=O)N[C@@H](CC(=O)O)C(=O)N[C@@H](Cc1c[nH]c2ccccc12)C(=O)N[C@H](C(=O)N[C@@H](CC(N)=O)C(=O)N[C@@H](CCCCN)C(N)=O)[C@@H](C)CC)[C@@H](C)CC)[C@@H](C)O)C(C)C [SEQ ID NO: 200] (Ac-IHVTIPAYLWDWINK-NH2) is ____.
Reply: < 10 µM

Task item: If you can, please state the reported IC50 value of CC[C@H](C)[C@H](NC(C)=O)C(=O)N[C@@H](Cc1c[nH]cn1)C(=O)N[C@H](C(=O)N[C@H](C(=O)N[C@@H](Cc1ccc(O)cc1)C(=O)N1CCC[C@H]1C(=O)N[C@@H](C)C(=O)N[C@@H](CC(=O)O)C(=O)N[C@@H](CC(C)C)C(=O)N[C@@H](Cc1c[nH]c2ccccc12)C(=O)N[C@@H](CC(=O)O)C(=O)N[C@@H](Cc1c[nH]c2ccccc12)C(=O)N[C@H](C(=O)N[C@@H](CC(N)=O)C(=O)N[C@@H](CCCCN)C(N)=O)[C@@H](C)CC)[C@@H](C)O)C(C)C [SEQ ID NO: 185] (Ac-IHVTYPADLWDWINK-NH2) .
Reply: < 10 µM

Task item: Give the measured IC50 of CC[C@H](C)[C@H](NC(=O)[C@H](Cc1c[nH]c2ccccc12)NC(=O)[C@H](CC(=O)O)NC(=O)[C@H](Cc1c[nH]c2ccccc12)NC(=O)[C@H](CC(C)C)NC(=O)[C@H](CC(=O)O)NC(=O)[C@H](C)NC(=O)[C@@H]1CCCN1C(=O)[C@@H](NC(=O)[C@@H](NC(=O)[C@@H](NC(=O)[C@H](Cc1c[nH]cn1)NC(=O)[C@H](CC(C)C)NC(C)=O)C(C)C)[C@@H](C)O)[C@@H](C)CC)C(=O)N[C@@H](CC(N)=O)C(=O)N[C@@H](CCCCN)C(N)=O [SEQ ID NO: 160] (Ac-LHVTIPADLWDWINK-NH2) .
Reply: < 10 µM

Task item: Look up IC50: CC[C@H](C)[C@H](NC(C)=O)C(=O)N[C@@H](Cc1c[nH]cn1)C(=O)N[C@H](C(=O)N[C@H](C(=O)N[C@H](C(=O)N1CCC[C@H]1C(=O)N[C@@H](C)C(=O)N[C@@H](CC(=O)O)C(=O)N[C@@H](CC(C)C)C(=O)N[C@@H](Cc1c[nH]c2ccccc12)C(=O)N[C@@H](CC(=O)O)C(=O)N[C@@H](Cc1c[nH]c2ccccc12)C(=O)N[C@@H](CCCCN)C(=O)N[C@@H](CC(N)=O)C(=O)N[C@@H](CCCCN)C(N)=O)[C@@H](C)CC)[C@@H](C)O)C(C)C [SEQ ID NO: 213] (Ac-IHVTIPADLWDWKNK-NH2)
Reply: < 10 µM

New cases:
Task item: Using the record for CC[C@H](C)[C@H](NC(C)=O)C(=O)N[C@@H](Cc1c[nH]cn1)C(=O)N[C@H](C(=O)N[C@H](C(=O)N[C@H](C(=O)N1CCC[C@H]1C(=O)N[C@@H](C)C(=O)N[C@@H](CC(=O)O)C(=O)N[C@@H](CC(C)C)C(=O)N[C@@H](Cc1c[nH]c2ccccc12)C(=O)N[C@@H](CC(=O)O)C(=O)N[C@@H](Cc1c[nH]c2ccccc12)C(=O)N[C@H](C(=O)N[C@@H](CC(=O)O)C(=O)N[C@@H](CCCCN)C(N)=O)[C@@H](C)CC)[C@@H](C)CC)[C@@H](C)O)C(C)C [SEQ ID NO: 221] (Ac-IHVTIPADLWDWIDK-NH2) , report its IC50.
Reply: < 10 µM

Task item: // query IC50 value for entry CC(=O)N[C@@H](CC(=O)O)C(=O)N[C@@H](CC(C)C)C(=O)N[C@@H](CO)C(=O)N[C@@H](C)C(=O)N[C@H](C(=O)N[C@H]1CSSC[C@@H](C(=O)N[C@@H](Cc2c[nH]cn2)C(N)=O)NC(=O)[C@H](CCC(=O)O)NC(=O)[C@@H]2CCCN2C(=O)[C@H](CC(=O)O)NC(=O)[C@H](Cc2c[nH]c3ccccc23)NC(=O)[C@@H]2CCCN2C(=O)[C@H](Cc2ccccc2)NC(=O)[C@H](C)NC(=O)[C@H](Cc2c[nH]c3ccccc23)NC1=O)C(C)C
Reply: < 1 µM
